assay: Oral bioavailability in Beagle dog at 5 mg/kg; format: ADME, organism-based, Canis lupus familiaris; details: in vivo
Endpoint: bioavailability (%)
Number in %, nothing else.

(Q) Bench note: what bioavailability did COc1cc(C)c(S(=O)(=O)N(C)CCOCC(=O)N2CCN(C3CCN(C)CC3)CC2)c(C)c1 show?
(A) 43

----------
Listed here: items and their measured bioavailability.
assay: Oral bioavailability in Swiss mouse at 5 mg/kg; type: ADME, organism-based; details: in vivo
Unit % implied. Number only.

Solved cases below.
# Compound, Endpoint, Result
records = [
    ("COc1cc(C)c(S(=O)(=O)N(C)CCOCC(=O)N2CCN(C3CCN(C)CC3)CC2)c(C)c1", "bioavailability", 22),
    ("COc1cc(C)c(S(=O)(=O)N(C)CCOCC(=O)N(C)Cc2ccc(C3=NCCN3)cc2)c(C)c1 [SAFOTIBANT]", "bioavailability", 12),
    ("COc1cc(C)c(S(=O)(=O)N(C)CCOCC(=O)N2CCN([C@@H]3CN4CCC3CC4)CC2)c(C)c1", "bioavailability", 6.7),
]

Kindly review the next compound as well.
(Q) Given the compound COc1cc(C)c(S(=O)(=O)N(C)CCOCC(=O)N2CCC(CCN(C)C)CC2)c(C)c1 , what is its reported bioavailability?
(A) 38
